Give IC50 for every item shown.
# TARGET OR TEST SYSTEM: USP28 (Homo sapiens (Human))
# Sequence (Q96RU2 whole entry): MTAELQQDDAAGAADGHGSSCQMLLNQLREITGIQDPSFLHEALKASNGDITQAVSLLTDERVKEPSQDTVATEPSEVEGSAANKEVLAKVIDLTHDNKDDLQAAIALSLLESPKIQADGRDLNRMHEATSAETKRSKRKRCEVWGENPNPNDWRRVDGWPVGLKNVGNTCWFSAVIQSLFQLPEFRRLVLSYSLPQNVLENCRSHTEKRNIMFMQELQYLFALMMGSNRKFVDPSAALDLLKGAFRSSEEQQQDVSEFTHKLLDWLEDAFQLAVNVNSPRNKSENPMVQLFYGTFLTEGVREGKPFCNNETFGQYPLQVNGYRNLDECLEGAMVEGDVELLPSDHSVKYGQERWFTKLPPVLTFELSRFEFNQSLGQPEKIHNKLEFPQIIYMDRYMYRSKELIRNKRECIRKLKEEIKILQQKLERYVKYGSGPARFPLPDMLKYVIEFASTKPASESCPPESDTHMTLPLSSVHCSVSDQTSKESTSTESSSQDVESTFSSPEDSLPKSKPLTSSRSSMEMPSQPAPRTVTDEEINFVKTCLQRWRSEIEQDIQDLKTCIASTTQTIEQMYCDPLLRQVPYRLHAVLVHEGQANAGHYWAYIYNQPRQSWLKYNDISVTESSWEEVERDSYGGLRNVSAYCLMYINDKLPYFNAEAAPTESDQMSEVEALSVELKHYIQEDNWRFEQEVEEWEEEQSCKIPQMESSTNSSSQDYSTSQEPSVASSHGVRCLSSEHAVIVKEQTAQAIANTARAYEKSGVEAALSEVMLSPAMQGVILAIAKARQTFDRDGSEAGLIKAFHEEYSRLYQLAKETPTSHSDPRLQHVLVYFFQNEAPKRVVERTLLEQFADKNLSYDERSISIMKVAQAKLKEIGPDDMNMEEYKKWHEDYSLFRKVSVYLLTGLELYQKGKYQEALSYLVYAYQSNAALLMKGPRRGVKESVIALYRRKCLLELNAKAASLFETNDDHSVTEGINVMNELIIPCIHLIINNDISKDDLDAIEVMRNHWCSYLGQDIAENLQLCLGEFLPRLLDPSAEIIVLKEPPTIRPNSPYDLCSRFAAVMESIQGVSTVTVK

CN[C@@H]1CN(c2cc(F)c(CCNC(=O)c3sc4nc(C)ccc4c3N)cc2F)C[C@@H]1F (single isomer, unassigned) : 0.2 to 2 µM
Cc1ccc2c(N)c(C(=O)NCCc3ccc(N4CCNCC4)c4c3CCC4)sc2n1 : < 0.2 µM
Cc1nc2sc(C(=O)NC[C@H](C)c3cc(F)c(N4CCNCC4)cc3F)c(N)c2cc1F : 0.2 to 2 µM

Field: IC50. Fill in for each record below.
1. CNC1CN(c2cc(F)c(CCNC(=O)c3sc4nc(C)ccc4c3N)cc2F)C1
2. Cc1nc2sc(C(=O)NCCc3ccc(N4CCNCC4)cc3)c(N)c2cc1N
3. CCc1cc(CCNC(=O)c2sc3nc(C)ccc3c2N)ccc1N1CC2CCC(C1)N2
4. CN[C@H]1CCN(c2ccc(CCNC(=O)c3sc4nc(C)ccc4c3N)cc2Cl)C1
5. Cc1ccc2c(N)c(C(=O)NCCc3ccc(N4CCNCC4)cc3C3CC3)sc2n1
6. Cc1ccc2c(N)c(C(=O)NCCc3c(F)cc(N4CCNCC4)cc3F)sc2n1

## Output
1: 0.2 to 2 µM; 2: 2 to 10 µM; 3: < 0.2 µM; 4: 0.2 to 2 µM; 5: < 0.2 µM; 6: 0.2 to 2 µM

Field: IC50. Fill in for each record below.
1. Cc1ccc2c(N)c(C(=O)NCCc3ccc(N4CC5CCC(C4)N5)c(C#N)c3)sc2n1
2. Cc1ccc2c(N)c(C(=O)NCCc3ccc(C4CCNCC4)cc3)sc2n1
3. Nc1c(C(=O)NCCc2ccc(N3CCNCC3)c(Cl)c2)sc2ncc(Cl)cc12

## Output
1. < 0.2 µM
2. < 0.2 µM
3. 0.2 to 2 µM

* * *

Record set of pIC50 for target or system USP25 (Homo sapiens (Human)).
pIC50: −log10 of the molar value.

Cc1ccc2c(N)c(C(=O)NCCc3ccc(N4CC[C@H]5NCC[C@H]54)cc3)sc2n1 (single isomer, unassigned) : 5.70 to 6.70
Cc1ccc2c(N)c(C(=O)NCCc3ccc(N4CCNCC4)c(-c4ccc(C(=O)N5CCCC5)cc4)c3)sc2n1 : 4.60 to 5.00
Nc1c(C(=O)NCCc2cc(F)c(N3CC4CCC(C3)N4)cc2F)sc2ncc(F)cc12 : 5.70 to 6.70

Field: pIC50. Fill in for each record below.
1. Cc1nc2sc(C(=O)NCCc3cc(F)c(N4CC5CCC(C4)N5)cc3F)c(N)c2cc1F
2. CNc1ccc2c(N)c(C(=O)NCCc3ccc(C4CCNCC4)cc3)sc2n1
3. Cc1ccc2c(N)c(C(=O)NCCc3ccc(N4C5CNCC4C5)cc3)sc2n1

## Output
5.70 to 6.70
5.70 to 6.70
> 6.70

* * *

Record set of IC50 for target or system USP25 (Homo sapiens (Human), UniProt Q9UHP3).

Nc1ccc2c(N)c(C(=O)NCCc3ccc(N4CCNCC4)cc3)sc2n1 [Example I-184] : 0.2 to 2 µM
CN[C@@H]1CN(c2cc(F)c(CCNC(=O)c3sc4nc(C)ccc4c3N)cc2F)C[C@@H]1F (single isomer, unassigned) [Example I-211] : 2 to 10 µM

Field: IC50. Fill in for each record below.
1. Cc1cc(C(F)F)c2c(N)c(C(=O)NCCc3ccc(N4CCNCC4)cc3)sc2n1 [Compound I-14]
2. Cc1ccc2c(N)c(C(=O)NCCc3ccc(C4CCNCC4)c(Cl)c3)sc2n1 [Compound I-205]
3. Cc1ccc2c(N)c(C(=O)NCCc3cc(F)c(N4C[C@@H]5CCN[C@@H]5C4)cc3F)sc2n1 [Example I-95]
4. Cc1ccc2c(N)c(C(=O)NCCc3ccc(N4CCN(CC5CCO5)CC4)cc3)sc2n1 (centres unmarked) [Compound I-25]
5. Cc1cc(C(F)(F)F)c2c(N)c(C(=O)NCCc3ccc(N4CCNCC4)cc3)sc2n1 [Compound I-204]
6. C[C@@H](CNC(=O)c1sc2ncc(F)cc2c1N)c1cc(F)c(N2CC3CCC(C2)N3)cc1F (single isomer, unassigned) [Example I-102]

## Output
["< 0.2 µM", "0.2 to 2 µM", "0.2 to 2 µM", "2 to 10 µM", "< 0.2 µM", "2 to 10 µM"]
